meta.source: patent US7612208B2

experimental_protocol: Test for measuring dissolution rate (rotating disk method)
Format: physicochemical
applied_conditions: 2nd fluid pH 6.8, 37° C., 50 rpm
property_label: dissolution rate (μg/min/cm^2)

See these solved cases before continuing.
INSERT INTO measurements (compound, property_label, recorded_value) VALUES
  ('COc1cc2nccc(Oc3ccc(NC(=O)NC4CC4)c(Cl)c3)c2cc1C(N)=O.CS(=O)(=O)O [mesylate (Form A)]', 'dissolution rate', 11.8),
  ('CCS(=O)(=O)O.COc1cc2nccc(Oc3ccc(NC(=O)NC4CC4)c(Cl)c3)c2cc1C(N)=O [esylate (Form β)]', 'dissolution rate', 18.5);

A = COc1cc2nccc(Oc3ccc(NC(=O)NC4CC4)c(Cl)c3)c2cc1C(N)=O.Cl [hydrochloride]
B = COc1cc2nccc(Oc3ccc(NC(=O)NC4CC4)c(Cl)c3)c2cc1C(N)=O [free form]
C = COc1cc2nccc(Oc3ccc(NC(=O)NC4CC4)c(Cl)c3)c2cc1C(N)=O.CS(=O)(=O)O [mesylate (Form C)]
D = Br.COc1cc2nccc(Oc3ccc(NC(=O)NC4CC4)c(Cl)c3)c2cc1C(N)=O [hydrobromide]
Ascending by dissolution rate, please. Note for the reader: the ranking is given by listing the labels in the order requested. B, A, D, C
(B: 0.8 μg/min/cm^2, A: 4.7 μg/min/cm^2, D: 8.7 μg/min/cm^2, C: 15.5 μg/min/cm^2)

* * *

experimental_protocol: Evaluation of hygroscopicity (storage 1 week; water content, powder X-ray diffraction)
Format: physicochemical
applied_conditions: a-1: 25° C., relative humidity 75%, 1 week
Description: The hygroscopicity and solid stability of a crystalline form of the mesylate of the carboxamide (Form A) (obtained in Example 5), a crystalline form of the mesylate of the carboxamide (Form C) (obtained in Example 7), a crystalline form of the acetic acid solvate of the mesylate of the carboxamide (Form I) (obtained in Example 10) and a crystalline form of the esylate of the carboxamide (Form β) (obtained in Example 12) were measured under the following conditions. 1. […]
property_label: water content (%)

Recorded results for 2 compounds are shown here.
INSERT INTO results (compound, recorded_value) VALUES
  ('COc1cc2nccc(Oc3ccc(NC(=O)NC4CC4)c(Cl)c3)c2cc1C(N)=O.CS(=O)(=O)O [mesylate (Form C)]', 0.6),
  ('COc1cc2nccc(Oc3ccc(NC(=O)NC4CC4)c(Cl)c3)c2cc1C(N)=O.CS(=O)(=O)O [mesylate (Form A)]', 0.6);

I = CC(=O)O.COc1cc2nccc(Oc3ccc(NC(=O)NC4CC4)c(Cl)c3)c2cc1C(N)=O.CS(=O)(=O)O
II = CCS(=O)(=O)O.COc1cc2nccc(Oc3ccc(NC(=O)NC4CC4)c(Cl)c3)c2cc1C(N)=O [esylate (Form β)]
Determine, for I and II , which has the greater value of water content. Answer by stating the label of the chosen item. II

* * *

experimental_protocol: Study of pharmacokinetics in beagle dogs
Format: in vivo
applied_conditions: dog, plasma; beagle dogs n=3, oral, gelatin capsule, 3 mg/kg as free form, fasted; mean ± standard error; read-out: Maximum plasma concentration (Cmax)
property_label: Cmax (ng/mL)
Quick reminder: number only, in ng/mL, skip the unit.

Would you mind telling me what Cmax value was observed for COc1cc2nccc(Oc3ccc(NC(=O)NC4CC4)c(Cl)c3)c2cc1C(N)=O [free form] ? 53.3
